Measured values drawn from patent US7348402B2 for this set.

# System: Salmonella enteritidis (ATCC 15277)
# Assay type: cell-based
# applied-conditions: ATCC 15277, 12 h
No end group written: not given here.
We begin with a simple list: items and their reported Minimum Inhibitory Concentration.
Give the number; µg/mL is assumed, so skip it.

RLVKNWPIGRLVKRLVKRLVK-NH2 [compound 70]
1
RVLRQWPIGRVLRRVLRRVLR [compound 5]
1
KLLKNWPIGKLLKKLLKKLLK [compound 21]
2
RLLKQWPIGRLLKRLLKRLLK [compound 11]
2
KVVRKVVRKVVRQWPIGKVVR [compound 44]
1

# context switch: different substance, same Minimum Inhibitory Concentration
Query: Requested read-out: Minimum Inhibitory Concentration. Entry: KVVKKVVKKVVKNWPIGKVVK [compound 53]
Result: 1
